test system: MS2 coat protein; experiment: apparent KD of MS2 coat protein; designed switch direction (-1 OFF switch, 1 ON switch): -1; higher = weaker reporter binding; conditions: input ligand: none
REPORTED METRIC: apparent KD of MS2 coat protein (µM)
Give bare numbers, in µM.

UAUAUGUCAGGAUAUUAGUAGUGGAUGAAUAAGAUUAUUGCUGAGAAGGGACAUGAGGAUCACCCAUGUUCCUC [JR_Ex4_Sub002] (Eterna round: R97, puzzle: Exclusion 4) = 0.0185

We next turn to a different sequence, shown below.
Record request: apparent KD of MS2 coat protein value, item ACAUGAGGAUCACCCAUGUGACAAUAAUGGCUGAUAUAGAAACAGGAUAUUCGUGAAUAUCUAACGAAGAAGGGUUAUGACUGG [Deportation 67 - Jieux - Exclusion NG 3] (Eterna round: R96, puzzle: Exclusion NG 3) 0.0518

---

Provide the reported apparent KD of K4 kissing-loop reporter of each item.
system: K4 kissing-loop RNA reporter; test: apparent KD of K4 kissing-loop reporter; higher = weaker reporter binding; details: Eterna round: R107; input ligand: theophylline 20 uM
Answers are plain numbers, in nM.

Below, 3 sequences whose answers are already recorded.
CGCCGUAAGGCGAGCGCUCCCACUCCGGAAGGAGCGCCCGGAAGGGCAGGUAGGUCGCCGGAGUGAUGUUCCGGUGGAGGGCUCG [#2 Exclusion - Arginine A Attempt #12 (Inspired by Omei)] = 221
AGUGAUGUGGGAAGGAGCGGUAUAAGAAUUCAGUGAUGUUGAAGUGUUGCAGAAAUAAAAGGCCAGGUAGGUCGCCUAGAUGUUA [KL-XARG B29] = 519
UGUACCGAGUCAGGAUAUGGCGUCGAAAGACGAAUCCUAGUGAUGUUAGGGAUCUGCGAAAGCAGUCCAGAAGGGACUUGGUACU [FmnBS 26 #SwitchBubble #StaticStem #DoubleMagnetSystem] = 389

List reported apparent KD of K4 kissing-loop reporter for each of these sequences:
1. GCGUGCAAGUCAUGAUGCCCUAUCAGGACUAAGGAUAUAGCGUGACCUAGAAGGUAGCUAGUGAUGUUGGCUGACAUGCUACUGC [theeternabot_exclusion_KL_FMN_A_49]
2. GGAUAGGACAGAGGAUAUGGACAGUCUACAAAGUAGGCUGAAUAAAUCCUUGAAUGGAGUGAUGUUCCAGAAGGCUGUCCUAUCG [FmnBX 22 #SwitchBubble #StaticStem #Palindromic]
3. AAGUGUGUGGCGGCCGCCACUAGUCUCCAGUGAUGUUGGAGAUAUCACGUAAGUGAUAUCCGACAUAGGACCGGGCCAUAUAGAA [Same State - Tryptophan B (Freestyle 21)]
4. AAGCCAGAGAUUGCUGCGGGUUCCAGAGAUACCAGCCGUAUUGAAGGCCCUUGGCAGCUCGAGUGAUGUUCGAGCCGUCUCCGGC [Onte]
5. UUUAUAUAGUCGGCCGCCACUGAUUUUUUUAUAUGUUUAUGUUUAUACGAGUGAUGUUCGAUAUACAGGACCGGGACUUUUGUUA [JR_SSTryptoB_Sub018]
6. AGUGUUAGGUUAGAUACCAGCCGUCUGUGGAUAAUCCUCAGACCGCCAGUGAUGUUGGCAGGCCCUUGGCAGCUAACAGGACAGA [Mavebius]

376
481
556
116
294
155

List reported apparent KD of K4 kissing-loop reporter for each of these sequences:
1. AGAGAUAUAUGAGGAUAUGGGUUAGUUAAUGAGUUAGUUUUAGUGUUGUUUGGUUAGUGAUGUUAUUUAGAAGGCGUGAGUGAUG [cqqbmullin]
2. UCGAAGGAUGGAAGGAGCGCUCGUCAGCCCUGCGAGUGAUGUUCGUGGGUAAAUAGUCGCGAGCAGGUAGGUCGCCAUCUUGAGC [Ritera]
3. AAGGUUCGUGGAAGGAGCGCCCGUGCGACUCGUUCAGUAAGUGAAGUCCGAGUGAUGUUCGGGCAGGUAGGUCGCCACGGGCAAA [Usontezaon]
4. ACCUACGAUCACAAAAGUGAUUGUAGGAUCUAGGAUAUGCUGAAGAGCAGAAGGAGAGUGAUGUUCUCAACUCACGAAAGUGAGA [whbob_Ex_FMNA__2th188]
5. AUGUAUGAAUUAGGAUAUCGUUAGCCUUUCAUAUAUAUGAUAAAUGGAUAUGUCGUAGUGAUGUUACGAGAAGGAGUGUGGAGUA [KL-XFMN-B8]

1: 112; 2: 111; 3: 123; 4: 258; 5: 64.6

List reported apparent KD of K4 kissing-loop reporter for each of these sequences:
1. UUUCGUCUCUGAGGAUAUCAGAAUAGAGUGAUGUUCUAUCAAAGCCCAGUGAUGUUGGAUGCUAUCUGAGAAGGCAGUGGGCGAG [Same State FMN B GF 11]
2. UGAGUUUGAGUGAUGUUCAGGCAUUGGUACGAGGAUAUCGAGGAGUUGAGAAGGCGUACUGCUCAACUUUGUAUGAAUACAUACA [FMN A Ex t2b]
3. UGUCAUUGGUCGGCCGCCACUUCAUAAAGAGUGAUGUUCUUAAAGACGGAUCGAAAGAUCUGUCGAAGGACCGGGACCGAUGACU [FiskerMod 8 - Jieux - Same State - Tryptophan B]
4. UCUUAACUAAAAUAAUGGGAUACCAGUGAUACCAGCCAUAUGCAGGGCCCUUGGCAGCACCCUUGGCAGCCUCGAGUGAUGUUCG [KL-SSTheo-A7 #DoubleAptamer]
5. GCCGUAGAUGGAAGGAGCGUGGUGGACUCGUGAAGUGAUGUUUCAAGUCGUUAUGCCCAACCACAGGUAGGUCGCCAUCUACGGC
6. UGAGAGUACCGGAUGGAGAAAUUGUAUGAUACCAGAGCAGAUUACCUCCCUUGGCAGCAUGCAUCCUGCUAGUGAUGUUGGCAAC [theeternabot_sameState_KL_Theo_A_48]
7. UGUAUGUGUCAGCGAGUGAUGUUCGACGAUACCAGACUCGAUAGAGUCCCUUGGCAGCGUAAUGCAUGCCAAACUGGCACAUACU [#SwitchBubble 13 #K4Early]
8. UGUCAUUGGUCGGCCGCCACUAGGACCGGGUAUAACCUAGUGAUGUUAGUAAAUACGGCCGCCACUAGGACCGGGACCGAUGACU [KL-SSTryp-B18 #DoubleAptamer]

[185, 117, 927, 247, 231, 669, 594, 471]

---

Provide the reported apparent KD of K4 kissing-loop reporter of each item.
tested on: K4 kissing-loop RNA reporter; experiment: apparent KD of K4 kissing-loop reporter; higher = weaker reporter binding; conditions: Eterna round: R107; input ligand: FMN 200 uM;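 further: bound reporter read as fluorescence of individual clusters on recovered sequencing chips by microscopy, with normalized cluster intensities fitted with a binding model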
Answers are plain numbers, in µM.

Below, 5 sequences whose answers are already recorded.
UACCUGCUGUCAGGAUAUGAGUGCAGUGAUGUUGCACUCAACGUAACCAUCUUGAAAUACAAACACUCAGAAGGGACGCACGAAG [Isattema] = 0.183
UGACUGGACUGAAGGAGCGGGAAACUCCUAGUGAUGUUAGGAAUACGAGACAAAGUCUCGACCCAGGUAGGUCGCAGUCUAGUCU [ArgBS 17 #SwitchBubble #StaticStem] = 0.121
AGAUACUUUAUCGCUAGAGGCAUUGCAGAUACCAGCCUAUCUAGAGGCCCUUGGCAGCUGGAGUGAUGUUUCGGCUUAGCUAAAG [theeternabot_exclusion_KL_Theo_A_32] = 0.402
CAUACUAUCAGAAGGAGCGUGGAAUAUUCAUCUGUAUCUAAUACGAGUGAUGUUCGUAAUUCACAGGUAGGUCGCUGAUUAAUAC [whbob_Ex_Arginine_B_2th159] = 0.265
AGACUACCACACUGUCAAUAGACAGUGUACUAGGAUAUGCUGAUAAGCAGAAGGAGUGAUGUUCCUUGGUAGUCAAUAAAAUAAU [FmnAX 13 U28+U67] = 0.357

We next turn to a different sequence, shown below.
Record request: apparent KD of K4 kissing-loop reporter value, item AUUUUUUUGUCAGGAUAUUAGUGUUGGUUUGGUUUGUUAGUGAUGUUGAUAUUUGUUUUAUGUAUUUAAGAAGGGAUUUAGCGGU [wxooemullin] 0.42

---

system: MS2 coat protein; assay: apparent KD of MS2 coat protein; designed switch direction (-1 OFF switch, 1 ON switch): -1; higher = weaker reporter binding; details: Eterna round: R95; input ligand: FMN 200 uM
REPORTED METRIC: apparent KD of MS2 coat protein (nM)
Answers are plain numbers, in nM.

Below, 3 sequences whose answers are already recorded.
AUUGUAGAUGUGAGGAUAUCGUAGAUUUUUUGAAACGAGAAGGCACAUGAGGAUCACCCAUGUAAGAUGUAGGU [JR_BMOE4_Sub053] (puzzle: Brourd's mod of Exclusion 4) = 45.8
AAGAAACAUGAGGAUCACCCAUGUGAGGAUAUGAAAAAGAAAAGAAAAGAAAGAAGUAUCAGAAGGCACAAAGG [salish99-ex1_r3_023] (puzzle: Exclusion 1) = 57.6
GCCAGAUCAGGAUAUCUAAUAUAUCACAUGAGGAUCACCCAUGUCCAGCGAAAGCUGGAGGGAGAAGGGAUCUGGC [Mat - Exclusion 5 - Eli mod - D102] (puzzle: Exclusion 5) = 39.8

List reported apparent KD of MS2 coat protein for each of these sequences:
1. AUUACUAACACGAAAGUGUUAGUACAAUAAGCUUGUGAAACAUGAGGAUCACCCAUGUCCUCAUAAGCUCGUCUUAA [salish99_TOv2_r3_010] (puzzle: Sensor v3, turn-off variant 2)
2. CAGUACUGAGGAUAUACAUGAGGAUCACCCAUGUGUCCCAGCUAGGAAACUAGCAAAAGUAGAAGGCAGUACUG [Fiskers Ex 3 828 mod 1] (puzzle: Exclusion 3)
3. AUUUUAAUAUAGGAUAUCGAAAUUAUUAUUUAACGAGAAGGAUAAACAUGAGGAUCACCCAUGUGGUAUCAUGG [JMFs Solution 1] (puzzle: Exclusion 6)
4. ACAAGCUUUUUGCUCGUCUACAUGAGGAUCACCCAUGUAGUGAGAUAGUGGUGAAGAUAGAAUGAGCGUAGUAGGUA [JR_SV3TOV1_Sub070] (puzzle: Sensor v3, turn-off variant 1)
5. UUCCUACAUGAGGAUCACCCAUGUGAGGAUAUGCAUCGUAUUAUUCUCGUAUGUAGUAGCAGAAGGCGCAUUGG [Starry Exclusion 1.1] (puzzle: Exclusion 1)
6. AUUUAACAUGAGGAUCACCCAUGUGAGGAUAUGUAAAUUUUAAACAAAUAGGAAAUGAACAGAAGGCACACCGG [JR_Exclusion1_Sub006] (puzzle: Exclusion 1)

14
420
138
14.5
121
61.7
